So I've got a bunch of variants here, and I need their yeast fitness values.
B1: tRNA (parent)
chain: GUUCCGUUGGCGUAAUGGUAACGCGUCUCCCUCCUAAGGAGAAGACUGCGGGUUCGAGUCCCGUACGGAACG

- Variants of: B1
- Assay Text: yeast fitness relative to wild type (ratio to wild type); higher = fitter; tRNA-Arg(CCU), competitive growth, 37 C, YPD
Variants at the floor of the assay were thinned out.
Answers are plain numbers.

Below, each entry is followed by its recorded yeast fitness result.
mutation_list="A14G C55G" measurement_type="yeast fitness" observed_value=0.583
mutation_list="C34G C66A A69C" measurement_type="yeast fitness" observed_value=0.599
mutation_list="C5G A42U G63A" measurement_type="yeast fitness" observed_value=0.531
mutation_list="G23A C49U A65C" measurement_type="yeast fitness" observed_value=0.523
mutation_list="U19C U54C" measurement_type="yeast fitness" observed_value=0.879
mutation_list="C22U C31G G67C" measurement_type="yeast fitness" observed_value=0.653
mutation_list="C49G U59A G63A" measurement_type="yeast fitness" observed_value=0.564
mutation_list="U8C C29U" measurement_type="yeast fitness" observed_value=0.937

Please give yeast fitness, item by item, for the list that follows.
1. G17C G56C A57G G68U
2. G17C U53G A70U
3. G39A C46A A65U
4. A20C C27G
5. G41C C60G
6. U35A G38C

0.571
0.564
0.581
0.633
0.695
0.527

Please give yeast fitness, item by item, for the list that follows.
1. G25A A43G G48C
2. C5U A14G A21U A36U G48C C55U
3. C27G C33G G44A

1. 0.573
2. 0.627
3. 0.669
